# studySystem: HDAC11 (Homo sapiens)
# Sequence (Q96DB2 1-347): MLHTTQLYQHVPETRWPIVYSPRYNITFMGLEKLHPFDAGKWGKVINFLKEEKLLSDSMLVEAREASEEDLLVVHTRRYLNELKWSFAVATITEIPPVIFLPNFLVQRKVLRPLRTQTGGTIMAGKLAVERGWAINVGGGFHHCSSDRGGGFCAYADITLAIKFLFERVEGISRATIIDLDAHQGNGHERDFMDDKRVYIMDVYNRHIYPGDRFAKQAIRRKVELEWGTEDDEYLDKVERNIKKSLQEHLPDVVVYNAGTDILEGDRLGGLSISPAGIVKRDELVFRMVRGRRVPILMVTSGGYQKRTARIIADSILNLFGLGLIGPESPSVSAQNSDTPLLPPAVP
# experimentalDetails: HDAC biochemical activity measurement (fluorescent substrate deacetylation);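 note: HDAC11 enzyme acting on an acetyl-lysine fluorogenic substrate, then a developer frees the fluorophore, read at excitation 360 nm and emission 460 nm, IC50 over a compound dilution series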
# conditionSet: read-out: IC50 HDAC11; HDAC11; 37° C. 30 minutes
pIC50: −log10 of the molar value.
# pIC50 values compiled below
observationType: pIC50

>>> result("C/C=C1\\NC(=O)c2cccc(n2)CNC(=O)C[C@@H](/C=C/CCSC(=O)CCCCCCC)OC(=O)[C@H](CC)NC1=O")
7.00
>>> result("C/C=C1\\NC(=O)c2cccc(n2)CNC(=O)C[C@@H](/C=C/CCSC(C)=O)OC(=O)[C@H](Cc2ccc(O)cc2)NC1=O")
6.97
>>> result("C/C=C1\\NC(=O)c2nc(ccc2F)CNC(=O)C[C@@H](/C=C/CCSC(C)=O)OC(=O)[C@H](Cc2ccc(O)cc2)NC1=O")
7.02
>>> result("C/C=C1\\NC(=O)c2ncc(SC)c(n2)CNC(=O)C[C@@H](/C=C/CCSC(C)=O)OC(=O)[C@H](C(C)C)NC1=O")
7.03
>>> result("C/C=C1\\NC(=O)c2cc(F)cc(n2)CNC(=O)C[C@@H](/C=C/CCSC(=O)CCC)OC(=O)[C@H](C(C)C)NC1=O")
7.03
>>> result("C/C=C1\\NC(=O)c2cc(F)cc(n2)CNC(=O)C[C@@H](/C=C/CCSC(=O)CCCCCCC)OC(=O)[C@H](CC)NC1=O")
7.08
